# reported MIC; entries follow
tested on: Aspergillus fumigatus; assay: Antifungal activity measured against Aspergillus fumigatus; type: functional

Worked cases, answers included:
Enquiry: So what's the measured MIC for this one? `CN(C/C=C/c1ccccc1)Cc1coc2ccccc12`
Return: > 100 mg/L

Enquiry: Please give the measured MIC for this compound: `Cc1ccc(CN(C)C/C=C/c2ccccc2)c2ccccc12`
Return: > 100 mg/L

Enquiry: Which MIC is listed for `CN(C/C=C/C1=CCCCCC1)Cc1cccc2ccccc12` ?
Return: 25 mg/L

Further cases:
Enquiry: If you can, please state the reported MIC value of `C(=C\c1ccccc1)/CN(Cc1cccc2ccccc12)C1CCCCC1` .
Return: > 100 mg/L

Enquiry: Could you share which MIC value was measured for CN(Cc1cccc2ccccc12)CC1CC1c1ccccc1 (stereo unspecified) ?
Return: > 100 mg/L

Enquiry: What does the data say about its MIC? Entry: `CN(C/C=C/C1CCCCC1)Cc1cccc2ccccc12`
Return: > 100 mg/L

----------
The following compounds are shown together with reported log10 of MIC values.
test system: Microsporum canis; experiment: Antifungal activity against Microsporum canis; assay type: functional
Each number you see is log10 of MIC, and the unit inside the log is µg/mL.

Previously resolved entries follow.
Enquiry: Entry `CN(C/C=C/c1cccs1)Cc1cccc2ccccc12` : reported log10 of MIC = ?
Return: -0.70

Enquiry: Bench note: what log10 of MIC did `CN(C/C=C/c1ccccc1)CC1=CCc2ccccc21` show?
Return: 0.49

Enquiry: Given the entry `CN(C/C=C/c1ccccc1)CCc1cccc2ccccc12` , report its measured log10 of MIC.
Return: 1.70

Enquiry: Look at this compound and give its reported log10 of MIC. `CCCC/C=C/C/C=C/CN(C)Cc1cccc2ccccc12`
Return: -1.00

Enquiry: I'd like to know its log10 of MIC. The compound in question is CN(Cc1cccc2ccccc12)CC1CC1c1ccccc1 (stereo not given)
Return: 1.10

Enquiry: Consider the compound `CN(C/C=C/C1=CCCCC1)Cc1cccc2ccccc12` and give its measured log10 of MIC.
Return: -1.00

Others:
Enquiry: Param item = `COc1ccc2ccccc2c1CN(C)C/C=C/c1ccccc1` ; retrieve measured log10 of MIC.
Return: 2.00

Enquiry: Fill in: log10 of MIC of `C/C(=C\CN(C)Cc1cccc2ccccc12)c1ccccc1` is ___
Return: 2.00

Enquiry: Fill blank: measured log10 of MIC of the compound `CN(C/C=C\c1ccccc1)Cc1cccc2ccccc12` is ____.
Return: -0.70

Enquiry: Quick one: log10 of MIC of `CN(C/C=C/c1ccccc1)Cc1csc2ccccc12` ?
Return: -0.70

Enquiry: Returns the measured log10 of MIC for the input compound. Input: `CN(C/C=C/c1cccc2ccccc12)Cc1ccccc1`
Return: 2.00

Enquiry: // log10 of MIC lookup, key: `CC(C)N(C/C=C/c1ccccc1)Cc1cccc2ccccc12`
Return: 0.49

Enquiry: // query log10 of MIC value for entry `CN(C/C=C/c1cccn1C)Cc1cccc2ccccc12`
Return: 1.70

Enquiry: Which value of log10 of MIC has been reported for `CN(C/C=C/c1ccccc1)Cc1c2ccccc2cc2ccccc12` in the records?
Return: -0.10

Enquiry: Consider the compound shown here: `CN(C/C=C/c1ccc(Cl)cc1)Cc1cccc2ccccc12` What is its recorded log10 of MIC?
Return: -0.40
